Provide the reported % residual compound, % R1 of each item.
target: bovine spleen Cathepsin B (Bos taurus, UniProt P07688); construct: bovine spleen Cathepsin B (SigmaAldrich C6286, ≥10 units/mg protein); purchased SigmaAldrich C6286; host or cells: bovine spleen (tissue-derived); assay: Cathepsin B cleavage assay (UHPLC-HRMS Orbitrap analysis); assay type: biochemical; settings: replicate R1, 240 min
Starred links: 1 amine or outer side, 2 acyl side, 3 side chain; linkers in the order of their positions; H or OH if unused. Non-standard residues stand in square brackets, D forms with d. Residues, ends and D or L forms follow the SMILES beside them. *: point of attachment. Paclitaxel(2'-OCO-DMEDA) = CC(=O)O[C@H]1C(=O)[C@@]2(C)[C@H]([C@H](OC(=O)c3ccccc3)[C@]3(O)C[C@H](OC(=O)[C@H](OC(=O)N(C)CCN(C)*)[C@@H](NC(=O)c4ccccc4)c4ccccc4)C(C)=C1C3(C)C)[C@]1(OC(C)=O)CO[C@@H]1C[C@@H]2O; Fmoc = O=C(OCC1c2ccccc2-c2ccccc21)*; PABC = O=C(OCc1ccc(N[*:1])cc1)[*:2]
The reply should be a number in %, with the unit left off.

So the reported % residual compound, % R1 for CC(=O)O[C@H]1C(=O)[C@@]2(C)[C@H]([C@H](OC(=O)c3ccccc3)[C@]3(O)C[C@H](OC(=O)[C@H](OC(=O)N(C)CCN(C)C(=O)OCc4ccc(NC(=O)CNC(=O)[C@H](CC(C)C)NC(=O)[C@@H]5CCCN5C(=O)CNC(=O)OCC5c6ccccc6-c6ccccc65)cc4)[C@@H](NC(=O)c4ccccc4)c4ccccc4)C(C)=C1C3(C)C)[C@]1(OC(C)=O)CO[C@@H]1C[C@@H]2O [Compound 1, Fmoc-GPLG-PABC-diamine-PTX] (Fmoc-GPLG[PABC]-{Paclitaxel(2'-OCO-DMEDA)}) , on bovine spleen Cathepsin B (Bos taurus, UniProt P07688), turned out to be 56.09

Record CC(=O)O[C@H]1C(=O)[C@@]2(C)[C@H]([C@H](OC(=O)c3ccccc3)[C@]3(O)C[C@H](OC(=O)[C@H](OC(=O)N(C)CCN(C)C(=O)OCc4ccc(NC(=O)[C@H](CCCNC(N)=O)NC(=O)[C@@H](NC(=O)OCC5c6ccccc6-c6ccccc65)C(C)C)cc4)[C@@H](NC(=O)c4ccccc4)c4ccccc4)C(C)=C1C3(C)C)[C@]1(OC(C)=O)CO[C@@H]1C[C@@H]2O [Compound 3, Fmoc-VCit-PABC-diamine-PTX] / bovine spleen Cathepsin B (Bos taurus, UniProt P07688), % residual compound, % R1 recorded as 81.21

% residual compound, % R1 value, target or system bovine spleen Cathepsin B (Bos taurus, UniProt P07688), for CC(=O)O[C@H]1C(=O)[C@@]2(C)[C@H]([C@H](OC(=O)c3ccccc3)[C@]3(O)C[C@H](OC(=O)[C@H](OC(=O)N(C)CCN(C)C(=O)OCc4ccc(NC(=O)CNC(=O)[C@H](CC(C)C)NC(=O)[C@H](Cc5ccccc5)NC(=O)CNC(=O)OCC5c6ccccc6-c6ccccc65)cc4)[C@@H](NC(=O)c4ccccc4)c4ccccc4)C(C)=C1C3(C)C)[C@]1(OC(C)=O)CO[C@@H]1C[C@@H]2O [Compound 2, Fmoc-GFLG-PABC-diamine-PTX] (Fmoc-GFLG[PABC]-{Paclitaxel(2'-OCO-DMEDA)}) : 96.36

For CC(=O)O[C@H]1C(=O)[C@@]2(C)[C@H]([C@H](OC(=O)c3ccccc3)[C@]3(O)C[C@H](OC(=O)[C@H](OC(=O)N(C)CCN(C)C(=O)OCc4ccc(NC(=O)[C@H](C)NC(=O)[C@@H](NC(=O)OCC5c6ccccc6-c6ccccc65)C(C)C)cc4)[C@@H](NC(=O)c4ccccc4)c4ccccc4)C(C)=C1C3(C)C)[C@]1(OC(C)=O)CO[C@@H]1C[C@@H]2O [Compound 4, Fmoc-VA-PABC-diamine-PTX] on bovine spleen Cathepsin B (Bos taurus, UniProt P07688), measured % residual compound, % R1 was 68.01

----------
Kindly supply the reported % residual compound, % R1 values for the records listed here.
target: bovine spleen Cathepsin B (Bos taurus, UniProt P07688); construct: bovine spleen Cathepsin B (SigmaAldrich C6286, ≥10 units/mg protein); purchased SigmaAldrich C6286; host or cells: bovine spleen (tissue-derived); assay: Cathepsin B cleavage assay (UHPLC-HRMS Orbitrap analysis); type: biochemical; details: replicate R1, 60 min
Starred links: 1 amine or outer side, 2 acyl side, 3 side chain; linkers in the order of their positions; H or OH if unused. Non-standard residues stand in square brackets, D forms with d. Residues, ends and D or L forms follow the SMILES beside them. *: point of attachment. Paclitaxel(2'-OCO-DMEDA) = CC(=O)O[C@H]1C(=O)[C@@]2(C)[C@H]([C@H](OC(=O)c3ccccc3)[C@]3(O)C[C@H](OC(=O)[C@H](OC(=O)N(C)CCN(C)*)[C@@H](NC(=O)c4ccccc4)c4ccccc4)C(C)=C1C3(C)C)[C@]1(OC(C)=O)CO[C@@H]1C[C@@H]2O; Fmoc = O=C(OCC1c2ccccc2-c2ccccc21)*; PABC = O=C(OCc1ccc(N[*:1])cc1)[*:2]
Please respond with the number in % and leave the unit unwritten.

Simply: CC(=O)O[C@H]1C(=O)[C@@]2(C)[C@H]([C@H](OC(=O)c3ccccc3)[C@]3(O)C[C@H](OC(=O)[C@H](OC(=O)N(C)CCN(C)C(=O)OCc4ccc(NC(=O)CNC(=O)[C@H](CC(C)C)NC(=O)[C@H](Cc5ccccc5)NC(=O)CNC(=O)OCC5c6ccccc6-c6ccccc65)cc4)[C@@H](NC(=O)c4ccccc4)c4ccccc4)C(C)=C1C3(C)C)[C@]1(OC(C)=O)CO[C@@H]1C[C@@H]2O [Compound 2, Fmoc-GFLG-PABC-diamine-PTX] (Fmoc-GFLG[PABC]-{Paclitaxel(2'-OCO-DMEDA)}) , bovine spleen Cathepsin B (Bos taurus, UniProt P07688), % residual compound, % R1 = 92.45

Form field % residual compound, % R1 for item CC(=O)O[C@H]1C(=O)[C@@]2(C)[C@H]([C@H](OC(=O)c3ccccc3)[C@]3(O)C[C@H](OC(=O)[C@H](OC(=O)N(C)CCN(C)C(=O)OCc4ccc(NC(=O)[C@H](C)NC(=O)[C@@H](NC(=O)OCC5c6ccccc6-c6ccccc65)C(C)C)cc4)[C@@H](NC(=O)c4ccccc4)c4ccccc4)C(C)=C1C3(C)C)[C@]1(OC(C)=O)CO[C@@H]1C[C@@H]2O [Compound 4, Fmoc-VA-PABC-diamine-PTX] on bovine spleen Cathepsin B (Bos taurus, UniProt P07688): 76.95

# value of % residual compound, % R1, bovine spleen Cathepsin B (Bos taurus, UniProt P07688), item CC(=O)O[C@H]1C(=O)[C@@]2(C)[C@H]([C@H](OC(=O)c3ccccc3)[C@]3(O)C[C@H](OC(=O)[C@H](OC(=O)N(C)CCN(C)C(=O)OCc4ccc(NC(=O)[C@H](CCCNC(N)=O)NC(=O)[C@@H](NC(=O)OCC5c6ccccc6-c6ccccc65)C(C)C)cc4)[C@@H](NC(=O)c4ccccc4)c4ccccc4)C(C)=C1C3(C)C)[C@]1(OC(C)=O)CO[C@@H]1C[C@@H]2O [Compound 3, Fmoc-VCit-PABC-diamine-PTX] = 80.56

For the compound CC(=O)O[C@H]1C(=O)[C@@]2(C)[C@H]([C@H](OC(=O)c3ccccc3)[C@]3(O)C[C@H](OC(=O)[C@H](OC(=O)N(C)CCN(C)C(=O)OCc4ccc(NC(=O)CNC(=O)[C@H](CC(C)C)NC(=O)[C@@H]5CCCN5C(=O)CNC(=O)OCC5c6ccccc6-c6ccccc65)cc4)[C@@H](NC(=O)c4ccccc4)c4ccccc4)C(C)=C1C3(C)C)[C@]1(OC(C)=O)CO[C@@H]1C[C@@H]2O [Compound 1, Fmoc-GPLG-PABC-diamine-PTX] (Fmoc-GPLG[PABC]-{Paclitaxel(2'-OCO-DMEDA)}) , the measured % residual compound, % R1 on bovine spleen Cathepsin B (Bos taurus, UniProt P07688) was 68.69

----------
target: bovine spleen Cathepsin B (Bos taurus, UniProt P07688); construct: bovine spleen Cathepsin B (SigmaAldrich C6286, ≥10 units/mg protein); purchased SigmaAldrich C6286; host or cells: bovine spleen (tissue-derived); assay: Cathepsin B cleavage assay (UHPLC-HRMS Orbitrap analysis); type: biochemical; settings: 60 min incubation with Cathepsin B, 37 °C, pH 5.4, 5 μM, triplicate
Starred links: 1 amine or outer side, 2 acyl side, 3 side chain; linkers in the order of their positions; H or OH if unused. Non-standard residues stand in square brackets, D forms with d. Residues, ends and D or L forms follow the SMILES beside them. *: point of attachment. Paclitaxel(2'-OCO-DMEDA) = CC(=O)O[C@H]1C(=O)[C@@]2(C)[C@H]([C@H](OC(=O)c3ccccc3)[C@]3(O)C[C@H](OC(=O)[C@H](OC(=O)N(C)CCN(C)*)[C@@H](NC(=O)c4ccccc4)c4ccccc4)C(C)=C1C3(C)C)[C@]1(OC(C)=O)CO[C@@H]1C[C@@H]2O; Fmoc = O=C(OCC1c2ccccc2-c2ccccc21)*; PABC = O=C(OCc1ccc(N[*:1])cc1)[*:2]
metric-name: % residual compound, Average % (%)
# number only, unit % dropped from output

Record CC(=O)O[C@H]1C(=O)[C@@]2(C)[C@H]([C@H](OC(=O)c3ccccc3)[C@]3(O)C[C@H](OC(=O)[C@H](OC(=O)N(C)CCN(C)C(=O)OCc4ccc(NC(=O)CNC(=O)[C@H](CC(C)C)NC(=O)[C@H](Cc5ccccc5)NC(=O)CNC(=O)OCC5c6ccccc6-c6ccccc65)cc4)[C@@H](NC(=O)c4ccccc4)c4ccccc4)C(C)=C1C3(C)C)[C@]1(OC(C)=O)CO[C@@H]1C[C@@H]2O [Compound 2, Fmoc-GFLG-PABC-diamine-PTX] (Fmoc-GFLG[PABC]-{Paclitaxel(2'-OCO-DMEDA)}) has bovine spleen Cathepsin B (Bos taurus, UniProt P07688) % residual compound, Average % equal to 95.89
